# METHOD: Tmax in Sprague-Dawley rat at 10 mg/kg, po measured for 24 hrs by LC-MS/MS analysis
# Assay type: ADME, organism-based
# MEASUREMENT_CONDITIONS: in vivo
ASSAY_METRIC: Tmax (min)
// note: answer is a bare numeric in min

Task: Query: Tmax; subject: O=C1NCCCCn2cc(cn2)-c2cnc3ccc(cc3c2)CCn2nc(ccc2=O)-c2ccc1c(C(F)(F)F)c2
Result: 15

---

# ASSAY_TARGET: Cytochrome P450 2C9 (Homo sapiens)
# Sequence (P11712 whole entry): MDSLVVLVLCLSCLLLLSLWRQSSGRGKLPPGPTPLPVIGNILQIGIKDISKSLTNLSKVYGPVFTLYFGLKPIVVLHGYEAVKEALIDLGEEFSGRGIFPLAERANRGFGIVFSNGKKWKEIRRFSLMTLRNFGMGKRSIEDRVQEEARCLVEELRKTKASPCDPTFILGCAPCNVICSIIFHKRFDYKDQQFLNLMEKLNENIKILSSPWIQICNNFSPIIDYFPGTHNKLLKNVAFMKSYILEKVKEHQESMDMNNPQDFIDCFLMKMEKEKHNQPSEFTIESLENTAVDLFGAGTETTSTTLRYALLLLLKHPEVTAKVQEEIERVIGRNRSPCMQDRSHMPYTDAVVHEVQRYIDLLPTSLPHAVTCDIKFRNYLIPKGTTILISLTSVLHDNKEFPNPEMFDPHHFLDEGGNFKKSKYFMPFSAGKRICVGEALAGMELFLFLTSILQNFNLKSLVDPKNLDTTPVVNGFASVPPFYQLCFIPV
ASSAY_METRIC: IC50

Task: Query: IC50; subject: O=C1NCCCCn2cc(cn2)-c2cnc3ccc(cc3c2)CCn2nc(ccc2=O)-c2ccc1c(C(F)(F)F)c2
Result: > 10 µM

Hey, just so you know, these numbers are from ChEMBL document CHEMBL5096238.
